Data origin: the supplement of paper PMC4862054

# System: HCC1143
# PROCEDURE_DETAILS: normalised response (% of control), CellTiter-Glo; higher = more viable cells (100 = DMSO, 0 = benzethonium chloride kill control)
# PROTOCOL_CONDITIONS: incubation time: 72 h
Below, each entry is listed with its recorded normalised response.
RECORDED_METRIC: normalised response (%)

>>> reported_result("C[C@]12CC[C@H](O)CC1=CC[C@@H]1[C@@H]2CC[C@]2(C)C(c3cccnc3)=CC[C@@H]12 [Abiraterone] (5 nM)")
101
>>> reported_result("CC(C)(C#N)c1cc(Cn2cncn2)cc(C(C)(C)C#N)c1 [Anastrozole] (1 nM)")
95.5
>>> reported_result("COc1ccccc1S(=O)(=O)Nc1ccc2c(c1)CN(C)C(=O)N2 [PFI-1] (10 nM)")
102
>>> reported_result("Cn1cncc1[C@@](N)(c1ccc(Cl)cc1)c1ccc2c(c1)c(-c1cccc(Cl)c1)cc(=O)n2C [Tipifarnib] (10 nM)")
101

====

Listing of recorded normalised response by entry.
# Tested on: CAL-120
# PROCEDURE_DETAILS: normalised response (% of control), CellTiter-Glo; higher = more viable cells (100 = DMSO, 0 = benzethonium chloride kill control)
# PROTOCOL_CONDITIONS: incubation time: 72 h
RECORDED_METRIC: normalised response (%)

>>> reported_result("CC(C)c1c(C(=O)Nc2ccccc2)c(-c2ccccc2)c(-c2ccc(F)cc2)n1CC[C@@H](O)C[C@@H](O)CC(=O)O [Atorvastatin] (100 nM)")
103
>>> reported_result("Cn1c(=O)n(-c2ccc(C(C)(C)C#N)cc2)c2c3cc(-c4cnc5ccccc5c4)ccc3ncc21 [Dactolisib] (10 nM)")
62.1
>>> reported_result("CC[C@]1(O)C[C@H]2CN(CCc3c([nH]c4ccccc34)[C@@](C(=O)OC)(c3cc4c(cc3OC)N(C=O)[C@H]3[C@@](O)(C(=O)OC)[C@H](OC(C)=O)[C@]5(CC)C=CCN6CC[C@]43[C@@H]65)C2)C1 [Vincristine] (10 nM)")
66.8
>>> reported_result("CN(C)C[C@@H]1CCn2cc(c3ccccc32)C2=C(C(=O)NC2=O)c2cn(c3ccccc23)CCO1 [Ruboxistaurin] (100 nM)")
92.7
>>> reported_result("O=C(O)CCCc1ccc(N(CCCl)CCCl)cc1 [Chlorambucil] (100 nM)")
96.6
>>> reported_result("O=C1NC(=O)[C@@H](c2cn3c4c(cccc24)CCC3)[C@@H]1c1c[nH]c2ccccc12 [Tivantinib] (10 nM)")
96.3
>>> reported_result("COc1ccccc1S(=O)(=O)Nc1ccc2c(c1)CN(C)C(=O)N2 [PFI-1] (100 nM)")
106
>>> reported_result("NS(=O)(=O)OC[C@@H]1C[C@@H](n2ccc3c(N[C@H]4CCc5ccccc54)ncnc32)C[C@@H]1O [Pevonedistat] (100 nM)")
91.1

====

Measured normalised response accompanies every entry in the list below.
# Test system: HCC1599
# PROCEDURE_DETAILS: normalised response (% of control), CellTox Green; higher = less cell death (100 = DMSO, 0 = benzethonium chloride kill control)
# PROTOCOL_CONDITIONS: incubation time: 72 h
RECORDED_METRIC: normalised response (%)

>>> reported_result("Cn1c(=O)n(-c2ccc(C(C)(C)C#N)cc2)c2c3cc(-c4cnc5ccccc5c4)ccc3ncc21 [Dactolisib] (10 nM)")
115
>>> reported_result("CN1CCN(CCOc2cc(OC3CCOCC3)c3c(Nc4c(Cl)ccc5c4OCO5)ncnc3c2)CC1 [Saracatinib] (1000 nM)")
96
>>> reported_result("CC[C@]1(O)C[C@H]2CN(CCc3c([nH]c4ccccc34)[C@@](C(=O)OC)(c3cc4c(cc3OC)N(C=O)[C@H]3[C@@](O)(C(=O)OC)[C@H](OC(C)=O)[C@]5(CC)C=CCN6CC[C@]43[C@@H]65)C2)C1 [Vincristine] (10 nM)")
90.7
>>> reported_result("CC(C)(C#N)c1cc(Cn2cncn2)cc(C(C)(C)C#N)c1 [Anastrozole] (10000 nM)")
106
>>> reported_result("CN(C)C[C@@H]1CCn2cc(c3ccccc32)C2=C(C(=O)NC2=O)c2cn(c3ccccc23)CCO1 [Ruboxistaurin] (1000 nM)")
95
>>> reported_result("Cc1ccc(NC(=O)c2ccc(CN3CCN(C)CC3)cc2)cc1Nc1nccc(-c2cccnc2)n1 [Imatinib] (10000 nM)")
94.8
>>> reported_result("Nc1ncnc2c1c(COc1cccc(Cl)c1)nn2C1CCOCC1 (10000 nM)")
106
>>> reported_result("c1ccc([C@H]2CN3CCSC3=N2)cc1 [Levamisole] (100 nM)")
104
>>> reported_result("Cc1ccc(NC(=O)c2ccc(CN3CCN(C)CC3)cc2)cc1Nc1nccc(-c2cccnc2)n1 [Imatinib] (1000 nM)")
104
>>> reported_result("CN1CCN(CCOc2cc(OC3CCOCC3)c3c(Nc4c(Cl)ccc5c4OCO5)ncnc3c2)CC1 [Saracatinib] (10000 nM)")
76.6
>>> reported_result("CNNCc1ccc(C(=O)NC(C)C)cc1 [Procarbazine] (10000 nM)")
98.3
>>> reported_result("CCCCCCCCc1ccc(CCC(N)(CO)CO)cc1 [Fingolimod] (10000 nM)")
91.4
>>> reported_result("CO[C@H]1C[C@@H]2CC[C@@H](C)[C@@](O)(O2)C(=O)C(=O)N2CCCC[C@H]2C(=O)O[C@H]([C@H](C)C[C@@H]2CC[C@@H](OCCO)[C@H](OC)C2)CC(=O)[C@H](C)/C=C(\\C)[C@@H](O)[C@@H](OC)C(=O)[C@H](C)C[C@H](C)/C=C/C=C/C=C/1C [Everolimus] (1 nM)")
89.6
>>> reported_result("CN(C)C[C@@H]1CCn2cc(c3ccccc32)C2=C(C(=O)NC2=O)c2cn(c3ccccc23)CCO1 [Ruboxistaurin] (10000 nM)")
91.6
>>> reported_result("Cn1cncc1[C@@](N)(c1ccc(Cl)cc1)c1ccc2c(c1)c(-c1cccc(Cl)c1)cc(=O)n2C [Tipifarnib] (1000 nM)")
90.8
>>> reported_result("NS(=O)(=O)OC[C@@H]1C[C@@H](n2ccc3c(N[C@H]4CCc5ccccc54)ncnc32)C[C@@H]1O [Pevonedistat] (100 nM)")
104
>>> reported_result("COc1ccccc1S(=O)(=O)Nc1ccc2c(c1)CN(C)C(=O)N2 [PFI-1] (100 nM)")
111
>>> reported_result("C[C@]12CC[C@H](O)CC1=CC[C@@H]1[C@@H]2CC[C@]2(C)C(c3cccnc3)=CC[C@@H]12 [Abiraterone] (500 nM)")
110
>>> reported_result("CC(C)(C#N)c1cc(Cn2cncn2)cc(C(C)(C)C#N)c1 [Anastrozole] (1000 nM)")
102
>>> reported_result("CC[C@]1(O)C[C@H]2CN(CCc3c([nH]c4ccccc34)[C@@](C(=O)OC)(c3cc4c(cc3OC)N(C=O)[C@H]3[C@@](O)(C(=O)OC)[C@H](OC(C)=O)[C@]5(CC)C=CCN6CC[C@]43[C@@H]65)C2)C1 [Vincristine] (1000 nM)")
69.7
>>> reported_result("Nc1nc(OCc2cc(Br)cs2)c2[nH]cnc2n1 [Lomeguatrib] (10000 nM)")
99.2
>>> reported_result("O=C1NC(=O)[C@@H](c2cn3c4c(cccc24)CCC3)[C@@H]1c1c[nH]c2ccccc12 [Tivantinib] (100 nM)")
85.6
>>> reported_result("Cn1c(=O)n(-c2ccc(C(C)(C)C#N)cc2)c2c3cc(-c4cnc5ccccc5c4)ccc3ncc21 [Dactolisib] (1000 nM)")
107
>>> reported_result("Nc1nc(OCc2cc(Br)cs2)c2[nH]cnc2n1 [Lomeguatrib] (100 nM)")
100
>>> reported_result("C/C(=C\\c1csc(C)n1)[C@@H]1C[C@@H]2O[C@]2(C)CCC[C@H](C)[C@H](O)[C@@H](C)C(=O)C(C)(C)[C@@H](O)CC(=O)O1 [Patupilone] (10 nM)")
106

====

A collection of molecules and their measured normalised response
# System: MFM-223
# PROCEDURE_DETAILS: normalised response (% of control), CellTiter-Glo; higher = more viable cells (100 = DMSO, 0 = benzethonium chloride kill control)
# PROTOCOL_CONDITIONS: incubation time: 72 h
RECORDED_METRIC: normalised response (%)

>>> reported_result("CN(C)CCN1C(=O)c2cccc3cc(N)cc(c23)C1=O [Amonafide] (10 nM)")
99.8
>>> reported_result("CN1CCN(CCOc2cc(OC3CCOCC3)c3c(Nc4c(Cl)ccc5c4OCO5)ncnc3c2)CC1 [Saracatinib] (10 nM)")
96
>>> reported_result("Cn1cncc1[C@@](N)(c1ccc(Cl)cc1)c1ccc2c(c1)c(-c1cccc(Cl)c1)cc(=O)n2C [Tipifarnib] (10 nM)")
95.2
>>> reported_result("C[C@]12CC[C@H](O)CC1=CC[C@@H]1[C@@H]2CC[C@]2(C)C(c3cccnc3)=CC[C@@H]12 [Abiraterone] (500 nM)")
101
